assay: Aggregation property of compound in PB buffer at pH 7 assessed as critical aggregation concentration by DLS assay; format: physicochemical
Field: CAC. Provide a value for each of the compounds that follow.
Numbers only, in µM.

Recorded results for 2 compounds are shown here.
> print(dat)
                                   compound  observed.result
1  CCCCCc1cc2c(c(O)c1C(=O)O)C=CC(C)(CCC=C(C)C)O2 (configuration not stated)              100
2  CCCCCc1cc(O)c2c(c1)OC(C)(CCC=C(C)C)C=C2 (configuration not stated) [CANNABICHROMENE]              5.6

Provide reported CAC for each item, in the same order as listed.
1. CCCCCc1cc(O)c(C/C=C(\C)CCC=C(C)C)c(O)c1 [CANNABIGEROL]
2. C=C(C)[C@@H]1CCC(C)=C[C@H]1c1c(O)cc(CCC)cc1O [CANNABIDIVARIN]
3. C=C(C)[C@@H]1CCC(C)=C[C@H]1c1c(O)cc(CCCCC)c(C(=O)O)c1O [CANNABIDIOLIC ACID]
4. CCCCCc1cc(O)c2c(c1)OC(C)(C)c1ccc(C)cc1-2 [CANNABINOL]
5. CCCCCc1cc(O)c(C/C=C(\C)CCC=C(C)C)c(O)c1C(=O)O [CANNABIGEROLIC ACID]

Ans:
1: 20.9; 2: 31.6; 3: 60.3; 4: 12.9; 5: 12
